Value source: patent US20250290928A1

System: MMP in the MDA-MB-231-derived extracellular vesicles
Assay Explanation: Digital detection of MDA-MB-231-derived extracellular vesicles through MMP activity in wells (SB substrates)
Assay type: biochemical, Human
Run Conditions: Example 35, 30° C., 6 h, EV 1/36 a.u.
*: point of attachment. 5FAM = O=C1OC2(c3ccc(O)cc3Oc3cc(O)ccc32)c2ccc(C(=O)*)cc21
Expected value λ for assorted substances
Answer as a number with no unit attached.

- Substance: "QXL520-Pro-Leu-Gly-Met-Trp-Ser-Arg-Lys(5-FAM)-NH2 (QXL520-PLGMWSRK(5FAM)-NH2) [SB6]"
  Expected value λ: 0.04778
- Substance: "QXL520-Pro-Leu-Ala-Leu-Trp-Ala-Arg-Lys(5-FAM)-NH2 (QXL520-PLALWARK(5FAM)-NH2) [SB2]"
  Expected value λ: 0.02931
- Substance: "QXL520-Arg-Pro-Leu-Ala-Leu-Trp-Arg-Lys(5-FAM)-NH2 (QXL520-RPLALWRK(5FAM)-NH2) [SB9]"
  Expected value λ: 0.01251

Incoming: # query: Expected value λ of entry QXL520-Pro-Tyr-Ala-Tyr-Trp-Met-Arg-Lys(5-FAM)-NH2 (QXL520-PYAYWMRK(5FAM)-NH2) [SB7]
Outgoing: 0.01933
